Molecular target: Annexin A2 CTD (AnxA2) (Homo sapiens) (UniProt P07355)
Sequence (P07355 34-339): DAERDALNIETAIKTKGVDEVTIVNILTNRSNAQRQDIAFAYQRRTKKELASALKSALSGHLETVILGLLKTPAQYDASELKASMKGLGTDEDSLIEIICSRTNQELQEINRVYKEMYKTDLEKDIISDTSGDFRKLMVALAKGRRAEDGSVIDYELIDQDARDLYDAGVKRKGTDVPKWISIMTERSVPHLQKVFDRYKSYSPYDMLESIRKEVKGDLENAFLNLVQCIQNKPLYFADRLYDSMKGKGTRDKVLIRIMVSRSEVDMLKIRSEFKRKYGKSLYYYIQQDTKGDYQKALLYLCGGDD
Assay: fluorescence anisotropy
Settings: full PS DNA; no 2' modification; 20 mM HEPES pH 7.0, 100 mM NaCl, 1 mM DTT, with 1 mM CaCl2, MgCl2 or EGTA; 50 nM labelled oligo, 0-120 uM protein; temperature not stated
MEASUREMENT_KIND: pKd
Numbers only, as −log10 of the molar value.

// query # get_value(readout= pKd, system= Annexin A2 CTD (AnxA2) (Homo sapiens) (UniProt P07355)) for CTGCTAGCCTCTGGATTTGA [PTEN PS, labelled]
// result 5.30

* * *

Biological target: Annexin A2 CTD (AnxA2) (Homo sapiens) (UniProt P07355)
Assay: fluorescence anisotropy
Details: full PS; 5-10-5 2'-MOE gapmer; 5-methyl-C; 20 mM HEPES pH 7.0, 100 mM NaCl, 1 mM DTT, with 1 mM CaCl2, MgCl2 or EGTA; 50 nM labelled oligo, 0-120 uM protein; temperature not stated
MEASUREMENT_KIND: Kd (µM)
One number for each entry, in µM.

// query # get_value(readout= Kd, system= Annexin A2 CTD (AnxA2) (Homo sapiens) (UniProt P07355)) for GCCAGGCTGGTTATGACTCA [5-10-5 MALAT PS, labelled]
// result 6.3
